Data origin, for the record: ChEMBL document CHEMBL1158801

Target: UniProt P06746
Experiment: Inhibition of human recombinant DNA polymerase beta assessed as fluorescein-12-dCTP incorporation by fluorimetry
The source made the active and inactive calls. The rule behind the calls is not given here.

{"compound": "CC(C)=CCC1CC2(CC=C(C)C)C(=O)C(C(=O)C(C)C)=C(O)OC2=C(C(CC(=O)O)c2ccccc2)C1(C)C (centres undefined)", "Activity": "inactive"}
{"compound": "CCC(C)C(=O)C1=C(O)OC2=C(C(CC(=O)O)c3ccccc3)C(C)(C)C(CCC(C)(C)NC(C)=O)CC2(CC=C(C)C)C1=O (centres undefined)", "Activity": "inactive"}
{"compound": "CCC(C)C(=O)C1=C(O)OC2=C(C(CC(=O)O)c3ccccc3)C(C)(C)C(CCC(C)(C)O)CC2(CC=C(C)C)C1=O (centres undefined)", "Activity": "inactive"}
{"compound": "CCC(C)C(=O)C1=C(O)OC2=C(C(CC(=O)O)c3ccccc3)C(C)(C)C(CCC(C)(C)OC(=O)C(F)(F)F)CC2(CC=C(C)C)C1=O (centres undefined)", "Activity": "inactive"}
